test: blockers of DNA damage checkpoint Chk1 activation – imaging, HeLa, hydroxyurea, phospho-Chk1 antibody, percent positive cells, primary screen (AID 1186); conditions: hydroxyurea-induced phospho-Chk1 immunofluorescence imaging, higher = more signal
Field: z-score. Provide a value for each of the molecules that follow.
Give bare numbers.

Answered examples (2):
>>> test_value("CCOC(=O)C[C@H]1[C@H](OC(=O)c2ccccc2-c2ccccc2)[C@@H](NC(=O)c2ccc3ccccc3c2)c2cc(OCCCO)ccc2N1C(=O)Cc1ccc(OC)cc1")
-0.242
>>> test_value("O=C1O[C@H](Cc2ccccc2)[C@@H]2[C@H]3C=CCCC=C3CN2[C@H]1Cc1ccc(O)cc1")
0.167

Hey, quick one: what's z-score for each of these?
1. O=C1O[C@@H](c2ccccc2)[C@@H](c2ccccc2)N2[C@@H](c3ccc(OCCO)cc3)[C@]3(C(=O)Nc4ccc(C#CCCO)cc43)[C@@H](C(=O)O)[C@H]12
2. C[C@@H]1ON(c2ccc(I)cc2)[C@H](c2cccc(NC(=O)OCC3c4ccccc4-c4ccccc43)c2)[C@H]1C(=O)N1C(=O)OC[C@H]1Cc1ccccc1
3. CCC(CC)C(O)C1C=CC2C(=O)N(c3ccccc3)C(=O)C2N1Nc1ccccc1F (stereo not given)
4. COc1ccc(C(O)C2C=CC3C(=O)N(c4ccccc4)C(=O)C3N2Nc2ccc([N+](=O)[O-])cc2)c2ccccc12 (stereo not given)
5. CCCCC(O)C1C=CC2C(=O)N(c3ccccc3)C(=O)C2N1Nc1ccc([N+](=O)[O-])cc1 (stereo not given)
6. C=CCOC(=O)[C@H]1[C@@H]2C(=O)O[C@@H](c3ccccc3)[C@@H](c3ccccc3)N2[C@@H](c2ccc(OCCOC(=O)[C@@H]3C[C@@H]4C(=O)N[C@@H](CCCCNC(C)=O)C(=O)N4[C@@H]3c3cccc(OCCO)c3)cc2)[C@]12C(=O)Nc1ccccc12
7. C=C(/C(=C/C[C@@H](OC(C)=O)c1cccc(OCCO)c1)c1cnc2ccccc2c1)C(C)C
8. COC(=O)[C@@]1(Cc2ccc(OC)cc2)[C@H]2c3cc(C(=O)N(C)C)[nH]c3C[C@H]2CN1C(=O)c1ccccc1

Completion:
-0.368
0.095
-0.121
0.219
0.391
0.321
0.0066
-0.041

Below is a list of molecules. For each, state its recorded z-score.
1. CN1C(=O)C2C=CC(C(O)c3ccc(-c4ccccc4)s3)N(NC(=O)OC(C)(C)C)C2C1=O (stereo not given)
2. CCCC#C[Si](O[C@H](CC)c1cn(Cc2ccccc2)nn1)(C(C)C)C(C)C
3. C=CCC(OC(C)=O)[C@@H]1[C@@H](N(Cc2ccc(-c3ccccc3)cc2)C(=O)c2cccc3ccccc23)c2cc(OCCCO)ccc2N1C(=O)Cc1ccc(OC)cc1 (stereo not given in full)
4. [N-]=[N+]=Nc1ccccc1C[C@@]1(C(=O)NCC(O)CO)N=C(c2ccc(OCCCO)cc2)O[C@@H]1c1ccccc1 (stereo not given in full)
5. COCCOC(=O)N1C(=O)[C@@]2(c3cc(C#CCC(C(=O)OC)C(=O)OC)ccc31)[C@H](c1ccc(O)cc1)N1[C@H](c3ccccc3)[C@H](c3ccccc3)OC(=O)[C@H]1[C@@H]2C(=O)Nc1nc2ccccc2s1

Completion:
0.307
-0.074
-0.066
-0.416
0.03
